tested on: osteosarcoma cell line SJSA-1; test: Cell viability (MTT) assay, SJSA-1; type: cell-based; conditions: 100 µM
QUANTITY_MEASURED: Viability of Cells (% of Control)

SMILES_STRUCTURE	RECORDED_VALUE
Cc1ccc(NC(=O)[C@H](C)CC(=O)C[C@@H](C)[C@H]2C[C@H](O)[C@@]3(C)C4=C(C(=O)C[C@]23C)[C@@]2(C)CCC(=O)C(C)(C)[C@@H]2C[C@@H]4O)cc1	83.3 ± 3.0 % of Control
C[C@H](CC(=O)C[C@@H](C)[C@H]1C[C@H](O)[C@@]2(C)C3=C(C(=O)C[C@]12C)[C@@]1(C)CCC(=O)C(C)(C)[C@@H]1C[C@@H]3O)C(=O)Nc1ccc(Cl)cc1	57.4 ± 4.2 % of Control
CCN1CCN(C(=O)[C@H](C)CC(=O)C[C@@H](C)[C@H]2C[C@H](O)[C@@]3(C)C4=C(C(=O)C[C@]23C)[C@@]2(C)CCC(=O)C(C)(C)[C@@H]2C[C@@H]4O)CC1	47.3 ± 2.1 % of Control
C[C@H](CC(=O)C[C@@H](C)[C@H]1C[C@H](O)[C@@]2(C)C3=C(C(=O)C[C@]12C)[C@@]1(C)CCC(=O)C(C)(C)[C@@H]1C[C@@H]3O)C(=O)NCCc1ccc(Cl)cc1	65.5 ± 1.5 % of Control

Entry source: paper PMC10004777
